System: RXF 631
experimentDescription: NCI tumour cell line growth inhibition, 48 h
Active and inactive are the calls of the source. Cut-off read from the data, not from the text of the source: active = GI50 up to about 1.1 µM and inactive = higher.
readoutKind: GI50

Requested read-out: GI50. Entry: O=C1Cc2ccccc2N1c1c(Cl)cccc1Cl
> 100 µM (inactive)

# query: GI50 of entry CC1CCC[P+](Cc2ccccc2)(c2ccccc2)CC1 (stereo not given)
> 100 µM (inactive)

Bench note: what GI50 did CN(C)c1ccc(C=C2C(=O)OC(C)(C)OC2=O)cc1Br show?
> 100 µM (inactive)

What GI50 value was documented for this molecule, CCOc1cccc2[s+]snc12 ?
> 100 µM (inactive)

Recorded GI50 for COc1cc2c(c(OC)c1OC)-c1ccc(SC)c(=O)cc1C(CC(=O)Oc1cccc([N+](=O)[O-])c1)C2 (stereo not given) , please?
0.502 µM (active)

====

System: OVCAR-5
experimentDescription: NCI tumour cell line growth inhibition, 48 h
The source made the active and inactive calls. Rule as the data show it: active = GI50 up to about 1.1 µM and inactive = higher.
One label from this list, please: t = active, f = inactive

Can you look up the reported call for c1ncn(C23C4C5C6C4C2C6C53)n1 (stereo unspecified) for me?
f

Recorded test outcome, item CC(Oc1ccc(Cl)cc1Cl)C(=O)NN1C(=O)CC(=O)N(c2ccccc2)C1=S (stereo unspecified)
f

Please share the test call associated with O=C1CC2(CCNCC2)C(=O)N1N1CCOCC1 .
f

Hey, what did the test say about Nc1nc(Cl)c(N)c(NCC2(CO)CCCC2)n1 ?
f

So what was the verdict on O=C(COc1ccc(OCC(=O)NNC2=NC(c3cc(F)c(Cl)cc3Cl)CS2)c(Cl)c1)NNC1=NC(c2cc(F)c(Cl)cc2Cl)CS1 (stereo unspecified) in this test?
f

GET /call?item= c1nncn1C12C3C4C5C3C1C5C42 (stereo unspecified) returns the recorded outcome of this test.
f

I would be grateful if you could indicate the recorded call for COC1=CC(=O)c2c(cc(COP(=O)(N(C)CCBr)N(C)CCBr)n2C)C1=O .
t

What did this assay record as the result for O=C1CC[C@@]2(O)[C@H]3Cc4ccc(-c5cccc(O)c5)c5c4[C@@]2(CCN3CC2CC2)[C@H]1O5 ?
f

Dear colleague, could you share the recorded outcome for C#CCOCn1cnc2ncnc(Cl)c21 when you have a moment?
f

Recorded test outcome, item CN1Cc2ccccc2S(=O)(=O)n2cccc2C1=O
f

Per the records of this test, what outcome belongs to CC(Oc1ccccc1Cl)C(=O)NN1C(=O)CSC1c1ccccc1 (stereo unspecified) ?
f

====

Tested on: SR
experimentDescription: NCI tumour cell line growth inhibition, 48 h
Active and inactive are the calls of the source. No stated cut-off is given here; in the data, active = GI50 up to about 1.1 µM and inactive = higher.
Choose the fitting class; nothing outside active, inactive is accepted.

Please share the test call associated with COC(=O)c1ccc(/C=N/c2cc(C)nn2-c2ccccc2)cc1 .
inactive

Called result for C=C1C[C@@H]2CC[C@@]34CC5O[C@H]6C(O[C@H]7CC[C@H](CC(=O)O[C@@H]8[C@@H](C)[C@@H]9O[C@@H]%10C[C@]%11(C[C@@H]%12O[C@]%13(C[C@H](C)[C@@H]%14O[C@@H]%15CC(C(COC(C)=O)OC(C)=O)O[C@@H]%15C[C@@H]%14O%13)C[C@H](C)[C@@H]%12O%11)O[C@@H]%10C[C@@H]9O[C@H]8CC8O[C@@H](CC[C@@H]1O2)C[C@@H](C)C8(O)CO)O[C@@H]7[C@@H]6O3)[C@H]5O4 (stereo partly specified)
active

Hi, do you know how COc1cc(/C=C2\C[C@H]3[C@@H]4CCc5cc(O)ccc5[C@H]4CC[C@]3(C)C2=O)cc(OC)c1OC came out in this test?
inactive

# fetch the recorded call for Cc1ccc(-c2cc(=O)c(=O)[nH][nH]2)cc1 here
inactive

Which outcome did this test record for the molecule C[N+](C)([O-])CCC=C1c2ccccc2CCc2ccccc21 ?
inactive

Can you look up the reported call for COc1cc(OCc2ccccc2)c2c(CCC(=O)O)cc(=O)oc2c1.COc1cc(OCc2ccccc2)cc2oc(=O)cc(CCC(=O)O)c12 for me?
inactive
